System: wild-type HIV-1IIIB strain
Assay: Antiviral activity, MT4 LTR-EGFP cellular assay
Assay type: cell-based
Design: key: pEC50 = -log10(EC50)
Conditions: wild-type HIV-1 IIIB, MT4 LTR-EGFP cells, three days after infection
QUANTITY_NAME: Antiviral activity IIIB (pEC50)

Field: example entries. Status: answers known.
SUBSTANCE_SMILES: CN(C[C@@H](O)[C@H](Cc1ccccc1)NC(=O)OCc1cncs1)C(=O)c1ccc2nc(N3CCCC3)oc2c1
Antiviral activity IIIB (pEC50): <4.00
--
SUBSTANCE_SMILES: CCN(C)c1nc2ccc(C(=O)N(CCN3CCOCC3)C[C@@H](O)[C@H](Cc3ccccc3)NC(=O)OCc3cncs3)cc2o1
Antiviral activity IIIB (pEC50): <4.00
--
SUBSTANCE_SMILES: CC(C)CN(C[C@@H](O)[C@H](Cc1ccccc1)NC(=O)OCc1cncs1)C(=O)c1ccc2ncsc2c1
Antiviral activity IIIB (pEC50): =4.02
--
SUBSTANCE_SMILES: CC(C)CN(C[C@@H](O)[C@H](Cc1ccccc1)NC(=O)OCc1cncs1)C(=O)c1ccc2nc(NCCCn3ccnc3)oc2c1
Antiviral activity IIIB (pEC50): =4.06
--
SUBSTANCE_SMILES: CC(C)CN(C[C@@H](O)[C@H](Cc1ccccc1)NC(=O)OCc1cncs1)C(=O)c1ccc2nc(N3CCOCC3)oc2c1
Antiviral activity IIIB (pEC50): <4.00

// below: Antiviral activity IIIB (pEC50) requested for another compound
Query: Lookup: Antiviral activity IIIB (pEC50) / wild-type HIV-1IIIB strain / O=C(N[C@@H](Cc1ccccc1)[C@H](O)CN(CC1CCC(F)(F)CC1)C(=O)c1ccc2nc(N3CCCC3)oc2c1)OCc1cncs1
Reply: =4.53

====

Biological target: CYP2D6 (Homo sapiens, UniProt P10635)
Sequence (P10635 whole entry): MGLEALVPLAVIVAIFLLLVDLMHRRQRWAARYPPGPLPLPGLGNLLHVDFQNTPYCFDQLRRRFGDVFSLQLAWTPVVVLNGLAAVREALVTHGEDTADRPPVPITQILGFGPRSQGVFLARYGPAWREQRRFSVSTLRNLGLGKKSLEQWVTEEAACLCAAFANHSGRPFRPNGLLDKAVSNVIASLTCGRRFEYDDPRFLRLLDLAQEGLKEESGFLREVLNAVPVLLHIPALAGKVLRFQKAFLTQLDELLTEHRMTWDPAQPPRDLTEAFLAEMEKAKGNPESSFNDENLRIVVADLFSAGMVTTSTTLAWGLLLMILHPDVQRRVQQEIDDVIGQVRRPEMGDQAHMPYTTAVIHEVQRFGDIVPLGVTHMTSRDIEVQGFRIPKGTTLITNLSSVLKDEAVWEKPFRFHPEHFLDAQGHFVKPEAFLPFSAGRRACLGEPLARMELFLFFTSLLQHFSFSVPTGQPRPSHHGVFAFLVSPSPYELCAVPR
Test: in vitro
Conditions: pH 7.4
QUANTITY_NAME: inhibition at 45 min, 10 μM (%)

[I] CCN(C)c1nc2ccc(C(=O)N(CC(C)C)C[C@@H](O)[C@H](Cc3ccccc3)NC(=O)OCc3ccncc3)cc2o1
[II] Cc1nc2ccc(C(=O)N(CC(C)C)C[C@@H](O)[C@H](Cc3ccccc3)NC(=O)OCc3cncs3)cc2o1
[III] CCN(C[C@@H](O)[C@H](Cc1ccccc1)NC(=O)OCc1cncs1)C(=O)c1ccc2nc(N(C)CC)oc2c1
[IV] CC(C)CN(C[C@@H](O)[C@H](Cc1ccccc1)NC(=O)OCc1cncs1)C(=O)c1ccc2ncn(C)c2c1
Query: Provide the items ranked by increasing inhibition at 45 min, 10 μM. The response must list the labels following the requested ordering.
Reply: IV, III, II, I

[P] CC(C)CN(C[C@@H](O)[C@H](Cc1ccccc1)NC(=O)OCc1cncs1)C(=O)c1ccc2ncoc2c1
[Q] CC(C)CN(C[C@@H](O)[C@H](Cc1ccccc1)NC(=O)OCc1cncs1)C(=O)c1ccc2nc(N3CCCCC3)oc2c1
Query: Higher inhibition at 45 min, 10 μM between P and Q ? State the label of the item chosen.
Reply: P

[I] CC(C)CN(C[C@@H](O)[C@H](Cc1ccccc1)NC(=O)OCc1cncs1)C(=O)c1ccc2nc(N3CCN(C)CC3)oc2c1
[II] C#CCN(C[C@@H](O)[C@H](Cc1ccccc1)NC(=O)OCc1cncs1)C(=O)c1ccc2nc(N(C)CC)oc2c1
Query: Lab log: flag the item ( I or II ) with the smaller inhibition at 45 min, 10 μM figure. Refer to your chosen entry by its label in the reply.
Reply: II

[A] CCN(C)c1nc2ccc(C(=O)N(CC3CCCCC3)C[C@@H](O)[C@H](Cc3ccccc3)NC(=O)OCc3cncs3)cc2o1
[B] CCc1nc2ccc(C(=O)N(CC(C)C)C[C@@H](O)[C@H](Cc3ccccc3)NC(=O)OCc3cncs3)cc2o1
Query: Given the listed items, does A or B have the lesser reported inhibition at 45 min, 10 μM? Output the label that corresponds to your choice.
Reply: B
(B: 51%, A: 87%)

// data source = patent US8350048B2
